Experiment: Acute Toxicity Test
Conditions: mouse, in vivo; Oral Administration; female ICR mice; day 14; read-out: Acute Toxicity(LD₅₀)
Experimental: Test compounds were administered to female ICR mice weighing 20 to 25g and on day 14, LD₅₀ was calculated from the number of survived mice by the probit analysis.
attribute_measured: LD50 at 336 h (mg/kg)

# molecule, result_unit, test_result
data = [
    ("C[C@H]1COc2c(N3CCC4(CC4N)C3)c(F)cc3c(=O)c(C(=O)O)cn1c23 (stereo partly shown) [Example 13]", "mg/kg", 4000),
]

----------
MIC: recorded values
tested on: Pseudomonas aeruginosa 9027; experiment: In vitro anti-bacterial activity test (MIC, two-fold dilution method) against the standard strains; format: cell-based; conditions: Table 1 strain 12: Pseudomonas aeruginosa 9027

# molecule, MIC [µg/mL]
data = [
    ("O=C(O)c1cn(C2CC2)c2cc(N3CCNCC3)c(F)cc2c1=O [Ciprofloxacin, ciprofloxacin, reference compound]", 0.391),
    ("CNC1CC12CCN(c1c(F)cc3c(=O)c(C(=O)O)cn(C4CC4)c3c1F)C2 (centres unmarked) [Example 8]", 1.56),
    ("Nc1c(F)c(N2CCC3(CC3N)C2)c(F)c2c1c(=O)c(C(=O)O)cn2C1CC1 (centres unmarked) [Example 7]", 1.56),
    ("C[C@H]1COc2c(N3CCC4(CC4N)C3)c(F)cc3c(=O)c(C(=O)O)cn1c23 (some centres unmarked) [Example 13]", 1.56),
    ("NCC1CC12CCN(c1c(F)cc3c(=O)c(C(=O)O)cn(C4CC4)c3c1F)C2 (centres unmarked) [Example 15]", 1.56),
    ("NC1CC12CCN(c1cc3c(cc1F)c(=O)c(C(=O)O)cn3C1CC1)C2 (centres unmarked) [Example 5]", 1.56),
    ("CNC1CC12CCN(c1cc3c(cc1F)c(=O)c(C(=O)O)cn3C1CC1)C2 (centres unmarked) [Example 11]", 3.12),
    ("NC1CC12CCN(c1c(F)cc3c(=O)c(C(=O)O)cn(C4CC4)c3c1F)C2 (centres unmarked) [Example 1]", 0.781),
    ("C[C@H]1COc2c(N3CCC4(CC4C(=O)O)C3)c(F)cc3c(=O)c(C(=O)O)cn1c23 (some centres unmarked) [Example 14]", 12.5),
    ("NC1CC12CCN(c1c(F)cc3c(=O)c(C(=O)O)cn(C4CC4)c3c1Cl)C2 (centres unmarked) [Example 3]", 0.781),
    ("CC(O)C(=O)O.NC1CC12CCN(c1c(F)cc3c(=O)c(C(=O)O)cn(C4CC4)c3c1F)C2 (centres unmarked) [Example 2]", 0.781),
]

Taken from patent EP0550016A1.
